System: Escherichia coli
experiment: Antibacterial activity against Escherichia coli ATCC 25922 measured after 24 hrs
Type: functional
cond: ATCC 25922, 24 h
Where a SMILES comes first, the peptide text is derived from it.
measured quantity: MIC

• CC[C@H](C)[C@@H]1NC(=O)[C@H](Cc2ccc(O)cc2)NC(=O)[C@@H]2CCCN2C(=O)[C@@H]2CCCN2C(=O)[C@H](CC(C)C)NC(=O)[C@H](CCC(=O)O)NC(=O)[C@H](Cc2ccccc2)NC(=O)[C@H](CC[S+](C)[O-])NC(=O)[C@@H]2CCCN2C(=O)[C@@H]2CCCN2C1=O (single isomer, unassigned; Epimer-1) = > 128 µM

Switching to the query record.
Which measured MIC value corresponds to C[C@@H]1NC(=O)[C@H]([C@@H](C)O)NC(=O)[C@H](Cc2ccc(O)cc2)NC(=O)[C@@H]2CCCN2C(=O)[C@H](Cc2ccc(O)cc2)NC(=O)[C@H](CCCNC(=N)N)NC(=O)[C@@H]2CCCN2C(=O)[C@H](CC(N)=O)NC1=O [CYCLONELLIN] (HELM PEPTIDE1{A.N.P.R.Y.P.Y.T}$PEPTIDE1,PEPTIDE1,1:R1-8:R2$$$V2.0) ? > 128 µM
